# study_target: human adenosine A1 receptor (Homo sapiens, UniProt P30542)
# Construct: expressed in transfected cells; host or cells: CHO cells, semliki forest virus expression system; washed membranes
# Sequence (P30542 whole entry): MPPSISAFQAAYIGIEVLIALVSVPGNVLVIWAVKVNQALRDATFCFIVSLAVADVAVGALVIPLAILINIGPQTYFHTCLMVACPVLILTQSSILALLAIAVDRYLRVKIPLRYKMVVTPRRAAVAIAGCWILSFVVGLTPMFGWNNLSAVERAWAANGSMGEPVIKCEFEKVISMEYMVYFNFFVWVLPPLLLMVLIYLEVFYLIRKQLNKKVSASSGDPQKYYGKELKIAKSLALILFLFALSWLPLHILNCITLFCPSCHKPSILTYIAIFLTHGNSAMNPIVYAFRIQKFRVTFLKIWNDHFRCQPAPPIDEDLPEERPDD
# test: [3H]-DPCPX binding assay, human adenosine A1 receptor (CHO cell membranes, SPA)
# condition_info: selectivity of hA2A versus hA1 binding
readout: Selectivity to hA1

Below are worked cases with known answers.
compound	Selectivity to hA1
COc1ccc(C(=O)Nc2nc3c(OC)ccc(C4COCCO4)c3s2)cc1 (single isomer, unassigned; (+)) [Example 33]	1238
COc1ccc(C2COCCO2)c2sc(NC(=O)c3ccnc(N4CCC(O)CC4)c3)nc12 (single isomer, unassigned; (+)) [Example 29]	2850
COc1ccc(C2COCCO2)c2sc(NC(=O)c3cccc(F)c3)nc12 (single isomer, unassigned; (+)) [Example 39]	674

I: COc1ccc(C2COCCO2)c2sc(NC(=O)c3ccc4c(c3)OCO4)nc12 (single isomer, unassigned; (+)) [Example 36]
II: COc1ccc(C2COCCO2)c2sc(NC(=O)c3ccnc(OCCN4CCOCC4)c3)nc12 (single isomer, unassigned; (+)) [Example 52]
Kindly identify the item with the lower Selectivity to hA1 figure among these two: I and II # respond with the chosen item's label
I
(I: 1411, II: 3141)
